pIC50: −log10 of the molar value.
Record type: pIC50 measurement. Applies to: Aurora kinase A (Homo sapiens)
endpoint name: pIC50

Would you please look over these solved cases?
- smiles input: "CCN1CCN(Cc2ccc(Nc3ncc4c(n3)N(C)c3c(F)cccc3C(=O)N4C)cc2C(F)(F)F)CC1"
  value reported: 7.87
- smiles input: "CCN1CCN(C(=O)Cc2ccc(Nc3ncc4c(n3)N(C)c3ccccc3C(=O)N4C)cc2)CC1"
  value reported: 8.21
- smiles input: "CN1CCN(Cc2cccc(Nc3ncc4c(n3)N(C)c3ccccc3C(=O)N4C)c2)CC1"
  value reported: 7.97
- smiles input: "CN1C(=O)c2ccccc2N(C)c2nc(Nc3ccc(S(N)(=O)=O)cc3)ncc21"
  value reported: 8.47
- smiles input: "CCN1CCN(C(=O)Cc2ccc(Nc3ncc(F)c(Nc4ccc(C(=O)Nc5ccccc5Cl)cc4)n3)cc2)CC1"
  value reported: 8.49

[A] CCN1CCN(Cc2ccc(Nc3ncc4c(n3)N(C)c3cc(F)ccc3C(=O)N4C)cc2C(F)(F)F)CC1
[B] CN1C(=O)c2ccccc2N(C)c2nc(Nc3ccc(OCc4ccccn4)c(Cl)c3)ncc21
[C] CN1CCN(c2ccc(Nc3ncc4c(n3)N(C)c3ccccc3C(=O)N4C)cc2)CC1
[D] CN1c2ccccc2C(=O)Nc2cnc(Nc3ccc(N4CCC(O)CC4)cc3)nc21
[E] COc1cc(Nc2ncc3c(n2)N(C)c2ccccc2C(=O)N3C)ccc1C(=O)N1CCN(O)CC1
Query: // ranking: key=pIC50, reverse=True A ranking is expressed here by listing the labels in the requested order.
Reply: E, C, B, D, A

[A] CN1C(=O)c2ccccc2N(C)c2nc(Nc3ccc(OCc4cccc(F)c4)cc3)ncc21
[B] Cc1cc(Nc2ncc3c(n2)N(C)c2ccccc2C(=O)N3C)ccc1C(=O)N1CCN(C)CC1
[C] CCN1CCN(Cc2ccc(Nc3ncc4c(n3)N(C)c3cc(C)ccc3C(=O)N4C)cc2C(F)(F)F)CC1
[D] CN1C(=O)c2ccccc2N(C)c2nc(Nc3ccc(OCc4cccc(Cl)c4)cc3)ncc21
[E] CN1CCN(c2cccc(Nc3ncc4c(n3)N(C)c3ccccc3C(=O)N4C)c2)CC1
Query: // ranking: key=pIC50, reverse=True A ranking is expressed here by listing the labels in the requested order.
Reply: B, E, D, C, A
(B: 8.43, E: 7.92, D: 7.08, C: 6.84, A: 6.49)

[1] CN1C(=O)c2ccccc2N(C)c2nc(Nc3ccc(S(=O)(=O)N4CCC(O)CC4)cc3)ncc21
[2] CN1CCN(c2ccc(Nc3ncc4c(n3)N(C)c3ccccc3C(=O)N4C)cc2C(F)(F)F)CC1
Query: Hi there! Just curious which has the higher pIC50 between 1 and 2 . Mark your answer with the label of the selected entry.
Reply: 1
